Values were extracted from PubChem BioAssay AID1347074.

- Study Target: Endoribonuclease Dicer (Homo sapiens) (UniProt Q9UPY3)
- Sequence (Q9UPY3 whole entry, looked up): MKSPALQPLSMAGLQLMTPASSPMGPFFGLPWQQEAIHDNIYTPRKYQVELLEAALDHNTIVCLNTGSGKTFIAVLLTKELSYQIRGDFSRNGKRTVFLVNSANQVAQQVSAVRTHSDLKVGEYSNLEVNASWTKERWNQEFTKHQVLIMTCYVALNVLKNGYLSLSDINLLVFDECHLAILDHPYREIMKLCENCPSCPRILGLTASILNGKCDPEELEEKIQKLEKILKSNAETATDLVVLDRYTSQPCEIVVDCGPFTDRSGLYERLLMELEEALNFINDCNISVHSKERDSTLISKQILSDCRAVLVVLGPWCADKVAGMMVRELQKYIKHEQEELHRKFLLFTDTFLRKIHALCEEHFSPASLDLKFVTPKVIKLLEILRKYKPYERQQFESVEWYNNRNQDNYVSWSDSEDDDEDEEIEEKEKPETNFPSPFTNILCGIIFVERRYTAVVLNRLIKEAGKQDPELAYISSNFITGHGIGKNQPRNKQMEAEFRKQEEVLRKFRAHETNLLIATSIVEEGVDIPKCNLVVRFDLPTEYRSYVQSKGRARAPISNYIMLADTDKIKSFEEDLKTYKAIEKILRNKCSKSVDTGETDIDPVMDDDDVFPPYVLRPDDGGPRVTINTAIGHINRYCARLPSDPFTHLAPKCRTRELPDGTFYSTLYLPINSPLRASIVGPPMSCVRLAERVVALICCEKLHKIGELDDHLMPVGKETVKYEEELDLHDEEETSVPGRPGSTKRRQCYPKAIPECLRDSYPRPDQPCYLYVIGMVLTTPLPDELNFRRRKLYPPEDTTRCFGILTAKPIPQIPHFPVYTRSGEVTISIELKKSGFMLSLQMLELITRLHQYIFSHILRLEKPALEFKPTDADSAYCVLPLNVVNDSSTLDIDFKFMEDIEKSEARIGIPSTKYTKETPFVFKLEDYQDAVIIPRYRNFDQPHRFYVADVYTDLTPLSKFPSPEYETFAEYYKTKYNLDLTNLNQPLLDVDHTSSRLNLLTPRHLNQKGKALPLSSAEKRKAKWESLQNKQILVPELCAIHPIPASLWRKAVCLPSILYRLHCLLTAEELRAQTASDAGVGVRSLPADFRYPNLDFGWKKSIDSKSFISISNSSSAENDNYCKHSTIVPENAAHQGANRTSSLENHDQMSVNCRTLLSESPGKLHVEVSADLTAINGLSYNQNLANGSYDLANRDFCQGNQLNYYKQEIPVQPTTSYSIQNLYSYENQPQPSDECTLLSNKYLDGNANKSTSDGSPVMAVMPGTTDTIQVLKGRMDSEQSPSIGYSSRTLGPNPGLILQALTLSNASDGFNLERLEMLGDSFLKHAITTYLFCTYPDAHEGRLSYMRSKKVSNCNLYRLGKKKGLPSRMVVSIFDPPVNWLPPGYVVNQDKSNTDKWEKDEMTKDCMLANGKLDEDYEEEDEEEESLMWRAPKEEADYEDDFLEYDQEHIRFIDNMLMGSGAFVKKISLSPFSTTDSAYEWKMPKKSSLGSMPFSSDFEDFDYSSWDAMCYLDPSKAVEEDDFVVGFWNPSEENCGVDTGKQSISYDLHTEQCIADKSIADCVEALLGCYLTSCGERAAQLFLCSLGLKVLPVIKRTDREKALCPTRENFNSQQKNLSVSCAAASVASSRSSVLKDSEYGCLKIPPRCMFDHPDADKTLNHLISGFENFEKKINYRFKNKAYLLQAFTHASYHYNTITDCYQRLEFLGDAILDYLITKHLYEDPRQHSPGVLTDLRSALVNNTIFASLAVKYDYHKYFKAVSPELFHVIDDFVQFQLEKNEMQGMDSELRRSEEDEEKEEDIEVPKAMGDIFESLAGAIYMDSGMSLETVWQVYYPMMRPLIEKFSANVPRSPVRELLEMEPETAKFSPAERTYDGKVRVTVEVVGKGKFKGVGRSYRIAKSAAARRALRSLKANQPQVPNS
- Experiment Notes: Dicer cleavage of pre-miR-21 blockers – biochemical, cat-ELCCA, chemiluminescence, primary screen (AID 1347074);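 further: plate controls were vehicle for no effect and no enzyme for full effect; higher signal means more uncleaved substrate so more Dicer inhibition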
- Assay Setup: cat-ELCCA pre-miR-21 Dicer processing, at 25 µM, stronger effect = higher value
In all, about 47,000 compounds went through this assay and about 2,800 (6%) were called active. The entries come from a sample that favours actives as a whole.
Quantity Measured: z-score

[[record]]
compound = "CCCc1nnc(N2C(=O)c3oc4ccc(F)cc4c(=O)c3C2c2ccc(OC)cc2)s1 (stereo not drawn)"
study_target = "Endoribonuclease Dicer (Homo sapiens) (UniProt Q9UPY3)"
value = "1.52 (inactive)"

[[record]]
compound = "COc1cccc(CNCc2ccc3c(c2)OCO3)c1"
study_target = "Endoribonuclease Dicer (Homo sapiens) (UniProt Q9UPY3)"
value = "0.54 (inactive)"

[[record]]
compound = "Cc1nn(-c2ccc(N3CCOCC3)nn2)c(=O)c2ccccc12"
study_target = "Endoribonuclease Dicer (Homo sapiens) (UniProt Q9UPY3)"
value = "-0.81 (inactive)"

[[record]]
compound = "NC(=O)C1CCN(C(=O)C2CC(c3ccc(Cl)cc3)=NO2)CC1 (stereo not drawn)"
study_target = "Endoribonuclease Dicer (Homo sapiens) (UniProt Q9UPY3)"
value = "-1.13 (inactive)"

[[record]]
compound = "COc1ccc(-c2cc(C)nc3nc(N)nn23)cc1"
study_target = "Endoribonuclease Dicer (Homo sapiens) (UniProt Q9UPY3)"
value = "-1.68 (inactive)"

[[record]]
compound = "COc1ccc(-c2nn3c(-c4ccccc4)nnc3s2)cc1OC"
study_target = "Endoribonuclease Dicer (Homo sapiens) (UniProt Q9UPY3)"
value = "-0.95 (inactive)"

[[record]]
compound = "CCOC(=O)c1c(NC(=O)C2CCCN2S(=O)(=O)c2ccccc2)sc(C)c1C (stereo not drawn)"
study_target = "Endoribonuclease Dicer (Homo sapiens) (UniProt Q9UPY3)"
value = "42.8 (inactive)"

[[record]]
compound = "O=C(CSc1nc2c(c(C(F)(F)F)n1)CCc1ccccc1-2)NCc1cccnc1"
study_target = "Endoribonuclease Dicer (Homo sapiens) (UniProt Q9UPY3)"
value = "2.31 (inactive)"

[[record]]
compound = "CC(C)(C)c1ccc(-c2cc(NC(=O)c3ccc(Cl)cc3)n[nH]2)cc1"
study_target = "Endoribonuclease Dicer (Homo sapiens) (UniProt Q9UPY3)"
value = "1.49 (inactive)"

[[record]]
compound = "CCOc1nc(-c2ccc(C)cc2)ccc1-c1noc(C)n1"
study_target = "Endoribonuclease Dicer (Homo sapiens) (UniProt Q9UPY3)"
value = "0.71 (inactive)"

[[record]]
compound = "N#Cc1ccsc1N1C(=O)c2ccccc2C1=O"
study_target = "Endoribonuclease Dicer (Homo sapiens) (UniProt Q9UPY3)"
value = "0.31 (inactive)"

[[record]]
compound = "Cc1cc(C)c(C(=O)NC(=O)Nc2c(Cl)cc(Cl)cc2Cl)c(C)c1"
study_target = "Endoribonuclease Dicer (Homo sapiens) (UniProt Q9UPY3)"
value = "0.37 (inactive)"

[[record]]
compound = "Cc1cc(Br)c(NC(=O)c2ccc(Cl)cc2)c(Br)c1"
study_target = "Endoribonuclease Dicer (Homo sapiens) (UniProt Q9UPY3)"
value = "4.71 (active)"

[[record]]
compound = "O=[N+]([O-])c1ccc(CC(O)N2CCN(c3nc4ccc(Cl)cc4s3)CC2)cc1 (stereo not drawn)"
study_target = "Endoribonuclease Dicer (Homo sapiens) (UniProt Q9UPY3)"
value = "-0.91 (inactive)"

[[record]]
compound = "Cc1cc(C)cc(Oc2coc3cc(OCC(=O)O)ccc3c2=O)c1"
study_target = "Endoribonuclease Dicer (Homo sapiens) (UniProt Q9UPY3)"
value = "-0.66 (inactive)"

[[record]]
compound = "COc1ccc(-c2nn3c(-c4ccc(OC)cc4)nnc3c3ccccc23)cc1"
study_target = "Endoribonuclease Dicer (Homo sapiens) (UniProt Q9UPY3)"
value = "3.15 (active)"

[[record]]
compound = "Cc1cc(OCC(=O)O)cc2c1C(=O)CC(C)(C)O2"
study_target = "Endoribonuclease Dicer (Homo sapiens) (UniProt Q9UPY3)"
value = "1.97 (inactive)"

[[record]]
compound = "CC(=O)C(Cc1ccc([N+](=O)[O-])cc1)(Cc1c(F)cccc1Cl)C(C)=O"
study_target = "Endoribonuclease Dicer (Homo sapiens) (UniProt Q9UPY3)"
value = "3.5 (active)"

[[record]]
compound = "Cc1cc(C)c2c(N)c(C(=O)NNC(=S)Nc3ccccc3)sc2n1"
study_target = "Endoribonuclease Dicer (Homo sapiens) (UniProt Q9UPY3)"
value = "5.62 (active)"

[[record]]
compound = "C=CCN(C(=O)c1ccccc1Cl)c1ccccc1C(=O)NCC(=O)OCC"
study_target = "Endoribonuclease Dicer (Homo sapiens) (UniProt Q9UPY3)"
value = "-0.79 (inactive)"

[[record]]
compound = "O=[N+]([O-])c1ccc(CSc2nc3cc(Cl)c(F)cc3[nH]2)cc1"
study_target = "Endoribonuclease Dicer (Homo sapiens) (UniProt Q9UPY3)"
value = "0.13 (inactive)"

[[record]]
compound = "CCc1c(C)nc2cc(-c3ccc(Br)cc3)[nH]n2c1=O"
study_target = "Endoribonuclease Dicer (Homo sapiens) (UniProt Q9UPY3)"
value = "1.4 (inactive)"

[[record]]
compound = "CCOC(=O)c1c(NC(=O)c2sc3nc(C)cc(COC)c3c2N)sc2c1CCCC2"
study_target = "Endoribonuclease Dicer (Homo sapiens) (UniProt Q9UPY3)"
value = "-1.64 (inactive)"

